Just for reference, patent US10919859B2 is where these values come from.

Target: UniProtKB O14842
Sequence (O14842 whole entry): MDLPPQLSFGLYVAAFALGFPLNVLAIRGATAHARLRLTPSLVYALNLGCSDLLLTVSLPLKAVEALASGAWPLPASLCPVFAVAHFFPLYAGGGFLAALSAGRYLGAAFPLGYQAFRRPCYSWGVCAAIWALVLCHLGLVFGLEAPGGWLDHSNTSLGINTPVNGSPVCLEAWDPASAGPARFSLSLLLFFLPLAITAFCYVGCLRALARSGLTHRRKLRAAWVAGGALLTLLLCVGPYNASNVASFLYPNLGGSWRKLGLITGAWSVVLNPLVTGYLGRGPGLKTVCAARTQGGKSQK
Assay: IP1 accumulation measurements using the IPOne assay system
Details: 1321N1 cells stably expressing human GPR40, 1 h at 37° C.
Param label: returns MET when EC50 < 80 nM, returns NOT MET otherwise, including exact equality.

In [3]: df
Out[3]:
                                smiles_data  qualitative_label
0  COc1cc(OC)c(Cl)c(-c2ccc(F)c(CNc3ccc([C@H]4C[C@@H]4C(=O)O)nc3)c2)c1Cl                MET
1  Cc1cc(O[C@H]2CCOC2)cc(C)c1-c1ccc(F)c(CNc2ccc([C@H]3C[C@@H]3C(=O)O)nc2)c1                MET
2  O=C(O)[C@H]1C[C@@H]1c1ccc(NCc2cc(-c3ccc(-c4cnco4)cc3)ccc2F)cn1            NOT MET
3  Nc1cc(F)c(-c2ccc(F)c(CNc3ccc([C@H]4C[C@@H]4C(=O)O)nc3)c2)c(F)c1            NOT MET
